Tested on: HeLa
EXPERIMENT SUMMARY: Compound was tested for its inhibition of HIV-1 induced focus formation in MAGI-CCR5 cells in strains like NL4-3K103N
Assay type: functional, cell-based
EXPERIMENTAL CONDITIONS: Homo sapiens
Each entry below lists one item and its recorded pEC50 value.
Hey, just a heads up that pEC50 is the negative log base 10 of the concentration in molar.

CCOCn1c(SC2CCCCC2)c(C(C)C)c(=O)[nH]c1=O    6.60

Which pEC50 value is on record for CCOCn1c(Cc2ccccc2)c(C(C)C)c(=O)[nH]c1=O ?
5.90

Which pEC50 value is on record for CCOCn1c(Cc2cc(C)cc(C)c2)c(C(C)C)c(=O)[nH]c1=O ?
7.40
